details: human gut metagenome, 24 h, 2 µM; note: call rule not given here
parameter: Bacterial Biotransformation

CN(C(=O)CN(CCO)CC(=O)N(C)C(C)(C)Cc1ccccc1)C(C)(C)Cc1ccccc1	Compound NOT metabolized
O=P(O)(O)O.c1ccc(CN(CC2=NCCN2)c2ccccc2)cc1 [ANTAZOLINE PHOSPHATE]	Compound NOT metabolized
C[C@@H]1CC[C@H]2[C@@H](C)C(=O)O[C@@H]3O[C@@]4(C)CC[C@@H]1[C@]32OO4	Compound metabolized
COc1ccccc1OCC(O)COC(N)=O (stereo not given)	Compound NOT metabolized

# context switch: different compound, same Bacterial Biotransformation
query: Let me know recorded Bacterial Biotransformation for c1ccc([C@H]2CN3CCSC3=N2)cc1 , thanks.
result: Compound metabolized
